Test: MRT (0 to t) in Sprague-Dawley rat at 10 mg/kg,po measured upto 24 hrs by LC-MS/MS analysis
Assay type: ADME, organism-based
Details: in vivo
Observed Property: MRT last at 24 h (h)
Answers are plain numbers, in h.

INPUT: Looking for the measured MRT last at 24 h of `Cc1ccc2c(-c3ccc4ncnc(N[C@H](CO)c5ccccc5)c4c3)c[nH]c2n1` , can you help?
OUTPUT: 5.77

* * *

Assay: AUC (0 to t) in Sprague-Dawley rat at 10 mg/kg,po measured upto 24 hrs by LC-MS/MS analysis
Format: ADME, organism-based
Details: in vivo
Observed Property: AUC(0-t) at 24 h
# include the unit after the value

INPUT: Looking for the measured AUC(0-t) at 24 h of `Cc1ccc2c(-c3ccc4ncnc(N[C@H](CO)c5ccccc5)c4c3)c[nH]c2n1` , can you help?
OUTPUT: 2990 ng·h/mL
